Target: T1, mouse NMUR1-ATG (mouse, UniProt O55040 1-428)
T1 sequence (looked up): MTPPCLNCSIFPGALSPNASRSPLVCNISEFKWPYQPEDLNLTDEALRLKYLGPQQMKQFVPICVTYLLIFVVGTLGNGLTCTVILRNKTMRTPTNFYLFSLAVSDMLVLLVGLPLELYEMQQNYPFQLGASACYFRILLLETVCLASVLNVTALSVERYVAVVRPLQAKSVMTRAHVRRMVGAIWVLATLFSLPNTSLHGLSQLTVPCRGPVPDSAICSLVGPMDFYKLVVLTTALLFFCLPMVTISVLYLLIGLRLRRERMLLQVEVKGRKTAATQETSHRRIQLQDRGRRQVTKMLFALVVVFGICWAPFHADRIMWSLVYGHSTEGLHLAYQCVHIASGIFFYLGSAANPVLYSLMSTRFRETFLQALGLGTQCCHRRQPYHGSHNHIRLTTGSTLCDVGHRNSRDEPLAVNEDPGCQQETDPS
Assay: cell-based or functional assay
*: point of attachment. (PEG)2 40 kDa = branched PEG of 40 kDa linked via the Cys side-chain thiol (code C2 = Cys(PEG)2 40 kDa); Succinimide(1-Et,3-yl) = CCN1C(=O)CC(*)C1=O
metric name: EC50 (FLIPR) (nM)

> print(dat)
                                     binder  measured
1  Ac-C((PEG)2 40 kDa)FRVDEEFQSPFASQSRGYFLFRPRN-NH2 [NMU9]      45.7
2   Ac-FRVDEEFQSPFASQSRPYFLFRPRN-NH2 [NMU5]       3.3
3  Ac-C(Succinimide(1-Et,3-yl))C(Succinimide(1-Et,3-yl))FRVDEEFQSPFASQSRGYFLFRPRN-NH2 [NMU22]       6.2
